test system: CAKI-1 renal; assay: NCI-60 one-dose screen, 48 h; conditions: 10 µM unless noted
This is part of a sample that, as a whole, favours compounds with a hit. Of some 83,000 tested, about 20% had one in any assay. Activity calls are given as the source filed them. How the source made its calls: active means growth percent below 10; inactive means the rest.
Answer with one of the outcomes given here: active, inactive

Reference set (8 entries):
* COc1cc2nc(-c3cccc4cccnc34)nc(NC3CCN(Cc4ccccc4)CC3)c2cc1OC | active
* O=C(Cn1cc(COc2ncnc3c2cnn3-c2ccccc2)nn1)Nc1cccc2ccccc12 | inactive
* O=C(Nc1ccc(F)cc1F)c1cc(I)ccc1O | active
* COc1ccccc1N1CCN(C(CNS(=O)(=O)c2ccc(Cl)cc2)c2cccnc2)CC1 (stereo not given) | inactive
* O=S(=O)(c1ccccc1)n1cc2c(c1-c1ccccc1)CCc1sc(Nc3ccccc3)nc1-2 | inactive
* O=C(Nc1ccc(-c2nc3ccc(NC(=O)c4ccc(Cl)cc4)cc3[nH]2)cc1)c1ccc(Cl)cc1 | inactive
* CCn1c(Cc2ccccc2Nc2c(Cl)cccc2Cl)nnc1SCC(=O)NN1C(=O)/C(=C/c2cccc(OC)c2OC)SC1=S | inactive
* COc1ccc(C2NCCc3c2[nH]c2ccccc32)cc1CN1CCN(c2ccc(F)cc2)CC1 (stereo not given) | inactive

QUERY: // param item: Clc1ccc(Nc2scc3[n+]2CCC3)cc1 ; yields the recorded call
RESULT: inactive

QUERY: Please let me know the test result on file for CN(C)/C=C1\SC(=Nc2ccc(Cl)cc2)NC1=O .
RESULT: inactive

Data provenance: PubChem BioAssay (NCI)
